- target: SIRT1 (Homo sapiens, UniProt Q96EB6)
- Sequence (Q96EB6 whole entry): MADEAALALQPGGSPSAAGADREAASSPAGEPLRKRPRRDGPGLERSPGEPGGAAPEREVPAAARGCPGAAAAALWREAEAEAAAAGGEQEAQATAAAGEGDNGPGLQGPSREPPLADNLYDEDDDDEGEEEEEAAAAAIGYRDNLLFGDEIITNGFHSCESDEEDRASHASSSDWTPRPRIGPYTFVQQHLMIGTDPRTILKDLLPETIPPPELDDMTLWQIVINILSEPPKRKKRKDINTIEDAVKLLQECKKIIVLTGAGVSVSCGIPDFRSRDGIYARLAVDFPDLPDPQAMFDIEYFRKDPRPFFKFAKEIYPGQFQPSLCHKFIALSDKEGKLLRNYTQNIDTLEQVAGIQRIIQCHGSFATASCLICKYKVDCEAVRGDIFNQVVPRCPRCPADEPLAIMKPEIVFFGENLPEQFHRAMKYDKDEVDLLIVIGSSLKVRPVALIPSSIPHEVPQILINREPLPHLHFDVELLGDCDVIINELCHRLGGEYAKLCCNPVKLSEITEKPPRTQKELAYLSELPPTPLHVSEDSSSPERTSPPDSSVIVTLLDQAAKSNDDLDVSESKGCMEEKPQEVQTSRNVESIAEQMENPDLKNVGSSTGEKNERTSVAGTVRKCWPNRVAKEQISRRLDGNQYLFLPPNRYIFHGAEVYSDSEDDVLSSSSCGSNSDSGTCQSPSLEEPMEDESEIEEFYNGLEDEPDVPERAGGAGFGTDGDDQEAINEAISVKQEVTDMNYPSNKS
- test-method-notes: TAMRA based mass spectrometry assay of SIRT1 activity
- Format: biochemical
- run-conditions: TAMRA assay; concentration giving 150% activation of SIRT1
measurement-type: TAMRA EC1.5 (μM)

# compound, target, TAMRA EC1.5 (μM)
measured = [
    ("Cc1nc2ccc(-c3ccccc3C(F)(F)F)nn2c1C(=O)Nc1cnncn1 [Compound 667]", "SIRT1 (Homo sapiens, UniProt Q96EB6)", "A (EC1.5<1 μM)"),
    ("Cc1cccc(NC(=O)c2c(C)nc3ccc(-c4ccccc4OC[C@H](O)CO)nn23)n1 [Compound 816]", "SIRT1 (Homo sapiens, UniProt Q96EB6)", "A (EC1.5<1 μM)"),
    ("Cc1ccnc(NC(=O)c2c(C)nc3ccc(-c4cccc(OC[C@H](O)CO)c4)nn23)c1 [Compound 798]", "SIRT1 (Homo sapiens, UniProt Q96EB6)", "A (EC1.5<1 μM)"),
    ("Cc1c(-c2ccccc2Cl)nn2c(NC(=O)c3cccc(N4CCCC4)n3)cnc2c1C [Compound 386]", "SIRT1 (Homo sapiens, UniProt Q96EB6)", "A (EC1.5<1 μM)"),
    ("Cc1cc(C)nc(NC(=O)c2cnc3ccc(-c4ccccc4OCC(O)CO)nn23)c1 (stereo not drawn) [Compound 371]", "SIRT1 (Homo sapiens, UniProt Q96EB6)", "A (EC1.5<1 μM)"),
]

[in] Given the entry O=C(Nc1cnn2ccc(-c3ccccc3C(F)(F)F)nc12)c1ncc(F)cc1F [Compound 749] , report its measured TAMRA EC1.5 (μM).
[out] A (EC1.5<1 μM)

---

- target: SIRT1 (Homo sapiens, UniProt Q96EB6)
- test-method-notes: TAMRA based mass spectrometry assay of SIRT1 activity
- Assay type: biochemical
- run-conditions: TAMRA peptide substrate; concentration giving 150% activation of SIRT1
measurement-type: TAMRA EC1.5

Known TAMRA EC1.5 results, listed for orientation:
# molecule, target, TAMRA EC1.5
measured = [
    ("O=C(Nc1cccnn1)c1cnn2ccc(-c3ccccc3C(F)(F)F)nc12 [Compound 505]", "SIRT1 (Homo sapiens, UniProt Q96EB6)", "A (EC1.5<1 μM)"),
    ("O=C(Nc1cccc(N2CCOCC2)n1)c1cnc2ccc(N3CCCC(C(F)(F)F)C3)nn12 (centres unmarked) [Compound 578]", "SIRT1 (Homo sapiens, UniProt Q96EB6)", "A (EC1.5<1 μM)"),
    ("Cc1nc2ccc(-c3ccccc3C(F)(F)F)nn2c1C(=O)Nc1ccccn1 [Compound 498]", "SIRT1 (Homo sapiens, UniProt Q96EB6)", "A (EC1.5<1 μM)"),
    ("Cc1nc2c(C)cc(-c3ccccc3C(F)(F)F)nn2c1C(=O)Nc1ccncc1F [Compound 473]", "SIRT1 (Homo sapiens, UniProt Q96EB6)", "A (EC1.5<1 μM)"),
    ("Cc1nc2ccc(-c3cccc(OC[C@H](O)CO)c3)nn2c1C(=O)Nc1ccncn1 [Compound 594]", "SIRT1 (Homo sapiens, UniProt Q96EB6)", "B (EC1.5 1-25 μM)"),
    ("O=C(Nc1ccccn1)c1cnn2ccc(-c3ccccc3OC(F)(F)F)nc12 [Compound 529]", "SIRT1 (Homo sapiens, UniProt Q96EB6)", "A (EC1.5<1 μM)"),
    ("CN(C)[C@H]1CCN(c2ccc3ncc(C(=O)Nc4cccc(N5CCOCC5)n4)n3n2)C1 [Compound 510]", "SIRT1 (Homo sapiens, UniProt Q96EB6)", "B (EC1.5 1-25 μM)"),
    ("Cc1nn2ccc(-c3ccccc3C(F)(F)F)nc2c1C(=O)Nc1cccnc1 [Compound 549]", "SIRT1 (Homo sapiens, UniProt Q96EB6)", "A (EC1.5<1 μM)"),
]

[in] Report TAMRA EC1.5 for COc1cccc(NC(=O)c2cnn3ccc(-c4ccccc4OC(F)(F)F)nc23)n1 [Compound 536] please.
[out] A (EC1.5<1 μM)

[in] Could you do the same for Cc1cc(NC(=O)c2c(C)nc3c(C)cc(-c4ccccc4C(F)(F)F)nn23)cc(C)n1 [Compound 432] , please?
[out] A (EC1.5<1 μM)

[in] What do you get for Cc1cc(NC(=O)c2cnc3ccc(-c4ccccc4OCC(O)CO)nn23)cc(C)n1 (centres unmarked) [Compound 415] ?
[out] A (EC1.5<1 μM)

[in] Let us now turn to Cc1nn2ccc(-c3ccccc3C(F)(F)F)nc2c1NC(=O)c1ncccn1 [Compound 570]
[out] B (EC1.5 1-25 μM)

[in] Try O=C(Nc1cnn2ccc(-c3ccccc3OC(F)(F)F)nc12)c1ccncn1 [Compound 585] next.
[out] B (EC1.5 1-25 μM)

[in] O=C(Nc1ccnc(N2CC3(CCO3)C2)n1)c1cnc2ccc(-c3ccccc3C(F)(F)F)nn12 [Compound 592] , same question.
[out] A (EC1.5<1 μM)

[in] Then Cc1nc2ccc(-c3ccccc3C(F)(F)F)nn2c1C(=O)Nc1ccncc1 [Compound 499] ?
[out] A (EC1.5<1 μM)

[in] What do we get for Cc1cc(NC(=O)c2cnc3ccc(-c4ccccc4C(F)(F)F)nn23)cc(OC[C@H](O)CO)n1 [Compound 557] ?
[out] A (EC1.5<1 μM)

[in] Next molecule up: O=C(Nc1ccc(F)cn1)c1cnn2ccc(-c3ccccc3C(F)(F)F)nc12 [Compound 518]
[out] A (EC1.5<1 μM)

---

- target: SIRT1 (Homo sapiens, UniProt Q96EB6)
- test-method-notes: TAMRA based mass spectrometry assay of SIRT1 activity
- Type: biochemical
- run-conditions: TAMRA assay; concentration giving 150% activation of SIRT1
measurement-type: TAMRA EC1.5 (μM)

Some molecules with recorded TAMRA EC1.5 (μM):
# molecule, measurement-type, reported-value
rows = [
    ("Cc1cccnc1NC(=O)c1cnn2ccc(-c3ccccc3C(F)(F)F)nc12 [Compound 653]", "TAMRA EC1.5 (μM)", "C (EC1.5>25 μM)"),
    ("Cc1cnc(C(=O)Nc2cnc3ccc(-c4ccccc4OC(F)(F)F)nn23)s1 [Compound 320]", "TAMRA EC1.5 (μM)", "A (EC1.5<1 μM)"),
    ("Cc1nn2ccc(-c3ccccc3C(F)(F)F)nc2c1C(=O)Nc1cccnn1 [Compound 695]", "TAMRA EC1.5 (μM)", "A (EC1.5<1 μM)"),
    ("Cc1cc(NC(=O)c2cnc3ccc(-c4ccccc4OC[C@H](O)CO)nn23)cc(C)n1 [Compound 805]", "TAMRA EC1.5 (μM)", "A (EC1.5<1 μM)"),
    ("Cc1cc(-c2ccccc2C(F)(F)F)nn2c(C(=O)Nc3ccnc(N4CCC4)c3)cnc12 [Compound 207]", "TAMRA EC1.5 (μM)", "A (EC1.5<1 μM)"),
    ("CC(C)c1nccc(C(=O)Nc2cnc3ccc(-c4ccccc4C(F)(F)F)nn23)n1 [Compound 274]", "TAMRA EC1.5 (μM)", "A (EC1.5<1 μM)"),
    ("Cc1cccc(NC(=O)c2c(O)nc3ccc(-c4ccccc4C(F)(F)F)nn23)n1 [Compound 343]", "TAMRA EC1.5 (μM)", "C (EC1.5>25 μM)"),
    ("O=C(Nc1cnc2ccc(-c3ccccc3Cl)nn12)c1cccc(N2CCC2)n1 [Compound 308]", "TAMRA EC1.5 (μM)", "A (EC1.5<1 μM)"),
    ("Cc1cc(C)nc(NC(=O)c2cnc3ccc(-c4ccccc4F)nn23)c1 [Compound 243]", "TAMRA EC1.5 (μM)", "A (EC1.5<1 μM)"),
    ("COc1ccc(NC(=O)c2c(C)nc3ccc(-c4ccccc4Cl)nn23)nn1 [Compound 743]", "TAMRA EC1.5 (μM)", "B (EC1.5 1-25 μM)"),
]

[in] # get_value(readout='TAMRA EC1.5 (μM)', item= O=C(Nc1cnn2ccc(-c3ccccc3C(F)(F)F)nc12)c1ccccn1 [Compound 249] )
[out] A (EC1.5<1 μM)

[in] Try the molecule Cc1nc(C(=O)Nc2cnc3ccc(-c4ccccc4OC(F)(F)F)nn23)c(C)s1 [Compound 318]
[out] A (EC1.5<1 μM)

[in] Another molecule to check: Cc1ccncc1NC(=O)c1cnn2ccc(-c3ccccc3OC(F)(F)F)nc12 [Compound 610]
[out] B (EC1.5 1-25 μM)

[in] Note, next up: O=C(Nc1ccc(OCC(O)CO)nc1)c1cnc2ccc(-c3ccccc3C(F)(F)F)nn12 (stereo not drawn) [Compound 263]
[out] B (EC1.5 1-25 μM)

---

- target: SIRT1 (Homo sapiens, UniProt Q96EB6)
- test-method-notes: TAMRA based mass spectrometry assay of SIRT1 activity
- Assay type: biochemical
- run-conditions: TAMRA assay; concentration giving 150% activation of SIRT1
measurement-type: TAMRA EC1.5 (μM)

Worked examples follow.
# compound, TAMRA EC1.5 (μM)
records = [
    ("O=C(Nc1cnccn1)c1cnn2ccc(-c3ccccc3C(F)(F)F)nc12", "A (EC1.5<1 μM)"),
    ("O=C(Nc1cnc(OCC(O)CO)cn1)c1cnc2ccc(-c3ccccc3C(F)(F)F)nn12 (stereo not shown)", "A (EC1.5<1 μM)"),
    ("Cc1nc2ccc(-c3ccccc3Br)nn2c1C(=O)Nc1cccnn1", "A (EC1.5<1 μM)"),
    ("Cc1csc(NC(=O)c2c(C)nn3ccc(-c4ccccc4C(F)(F)F)nc23)n1", "A (EC1.5<1 μM)"),
    ("CCOc1ccc(NC(=O)c2c(C)nc3ccc(-c4ccccc4F)nn23)nn1", "B (EC1.5 1-25 μM)"),
    ("Cc1cnc(C(=O)Nc2cnc3ccc(-c4ccccc4Cl)nn23)s1", "B (EC1.5 1-25 μM)"),
    ("Cc1cc2ncc(C(=O)Nc3cccc(N4CCOCC4)n3)n2nc1-c1ccccc1C(F)(F)F", "A (EC1.5<1 μM)"),
    ("Cc1ccnc(NC(=O)c2cnc3ccc(-c4ccccc4OC[C@H](O)CO)nn23)c1", "A (EC1.5<1 μM)"),
]

Here is another compound to look at.
[in] TAMRA EC1.5 (μM) for CC1(COc2cccc(NC(=O)c3cnc4ccc(-c5ccccc5C(F)(F)F)nn34)n2)COC1 ?
[out] A (EC1.5<1 μM)
